Test: qHTS Assay for Lipid Storage Modulators in Drosophila S3 Cells;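 for cell number change: cells counted by Cell Tracker Red CMTPX staining in the red channel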
Conditions: BODIPY lipid droplet fluorescence, 18-24 h, cells fed with added oleic acid; measured here: cell count max response
In all, about 320,000 compounds went through this assay and about 2,100 (0.66%) were called active. Another 53% or so got no clear call; they are omitted. The sample as a whole holds a higher share of actives than the screen did.
experimental.readout: cell number change (%)

>>> df
                                    molecule     val
 0  Cc1ccc(S(=O)(=O)N2CCOC2CNC(=O)C(=O)NCCc2c[nH]c3ccccc23)cc1 (stereo unspecified)    24.7
 1          C[n+]1ccccc1/C=C1\Sc2ccccc2N1CCO   -1.06
 2  COc1cccc(NC(=O)c2ccc(CN3CCc4ccccc4C3)cc2)c1    26.4
 3        CCCCC(=O)Nc1ccc(NC(=O)c2cnccn2)cn1    3.06
 4    COC(=O)c1ccc(CSc2nc3ccccc3c(=O)n2N)cc1    -1.8
 5  Cc1cccc(N2C(=O)c3ccc(C(=O)Nc4c[nH]c(=O)[nH]c4=O)cc3C2=O)c1  -0.423
 6  CCN(CC)C(=O)C1CCCN(C(=O)c2oc3ccc(C)cc3c2C)C1 (stereo unspecified)    15.6
 7  CC1CCc2sc(C(=O)NNC(=S)NCC3CCCO3)cc2C1 (stereo unspecified)      20
 8  CCCCN(C(=O)c1cccc(S(=O)(=O)N2CC(C)OC(C)C2)c1)c1c(N)n(CCCC)c(=O)[nH]c1=O (stereo unspecified)    6.37
 9  Cc1ccc2oc(C(=O)N3CCC(C(N)=O)(N4CCCCC4)CC3)c(C)c2c1    -4.2
10  CN(NS(=O)(=O)c1ccc(F)cc1)c1ncc(C(F)(F)F)cc1Cl   -16.4
11  CCCCN1/C(=C/c2cccc[n+]2C)Sc2cc(NC(C)=O)ccc21    11.1
12  Cc1ccc(NC(=S)N2CCC(C(N)=O)(N3CCCCC3)CC2)c(C)c1   -4.08
13  Cc1nc2c(sc(=S)n2Cc2ccco2)c(=O)n1CC(=O)Nc1ccc(F)cc1    20.2
14  S=c1[nH]nc(-c2ccncc2)n1/N=C/c1cccc2ccccc12    15.5
15  CCCN(c1ccccc1F)S(=O)(=O)c1cc(-c2cc(C)no2)ccc1OC   -29.5
16  COC(=O)c1cc(C(=O)OCC(=O)NCc2cccs2)cc([N+](=O)[O-])c1   -8.04
17  CC1(c2ccc(OCC#N)cc2)C=C(c2ccc(OCC#N)cc2)n2nc(C(F)(F)F)nc2N1 (stereo unspecified)   -2.27
18  CCCCNC(=O)COc1ccccc1C(=O)c1cc(C#N)c(=O)n(CCOC)c1    1.51
19  COc1ccc(CN(CC2CCC(C(=O)O)CC2)C(=S)Nc2cc(C)cc(C)c2)cc1 (stereo unspecified)   -1.54
20     Cc1ccc2c(c1)S/C(=C\c1cccc[n+]1C)N2CCO   -6.57

* * *

Each item that follows carries a reported lipid storage change, negative = inhibition.
Assay: qHTS Assay for Lipid Storage Modulators in Drosophila S3 Cells; for lipid storage change, negative = inhibition: % is set by controls: 0 for no effect and ±100 for the full control effect
Conditions: BODIPY lipid droplet fluorescence, 18-24 h, cells fed with added oleic acid; series mostly up to 46.1 µM
Hit rate of the full screen: of about 320,000 compounds, about 2,100 (0.66%) were called active. Roughly 53% stayed inconclusive and do not appear here. This is one part of a sample in which actives are shown more often than they occur.
experimental.readout: lipid storage change, negative = inhibition

In [3]: df
Out[3]:
                                    compound                               val
 0  CCOC(=O)C1=C(C)OC(N)=C(C#N)C1c1ccccc1 (stereo not drawn)     8.87% [at 9.22 µM] (inactive)
 1  CCCCC[C@]12Cc3cc(OC)c(OC)cc3C(O1)c1c(cc(C)n(-c3ccccc3)c1=O)O2    -5.41% [at 9.22 µM] (inactive)
 2               CCCNS(=O)(=O)c1cccc2cccnc12   -0.974% [at 9.22 µM] (inactive)
 3  Cc1cc(-n2c(C)cc(C(=O)COc3ccc([N+](=O)[O-])cc3)c2C)no1    -9.66% [at 9.22 µM] (inactive)
 4  CCC(=O)NC(=S)Nc1ccc(NC(=O)c2ccc(Br)o2)cc1    -15.2% [at 9.22 µM] (inactive)
 5        CCc1nc2oc3ccccc3c(=O)c2c(=O)n1CCOC    -1.96% [at 9.22 µM] (inactive)
 6  O=c1oc2ccc(F)cc2c2c1C1O[C@](c3ccsc3)(Cc3c1ccc1ccccc31)O2     17.6% [at 9.22 µM] (inactive)
 7  Cc1ccc(S(=O)(=O)NCCC(=O)NCCOc2ccccc2)cc1  -20.7% [at 0.0737 µM] (inactive)
 8  Cc1ccc2cc(CCNC(=O)c3ccc(S(=O)(=O)N4CCCCC4)cc3)c(=O)[nH]c2c1     20.6% [at 9.22 µM] (inactive)
 9  Cc1noc(C)c1COc1ccccc1C(=O)N(C)Cc1ccc(F)cc1   19.1% [at 0.0737 µM] (inactive)
10  CSCCC(NC(=O)c1ccc(Cl)cc1Cl)C(=O)N(C)Cc1nc2ccccc2c(=O)[nH]1 (stereo not drawn)    1.6% [at 0.0737 µM] (inactive)
11  Cc1ccsc1C(=O)OCC(=O)NCCNC(=O)COC(=O)c1sccc1C  -4.96% [at 0.0737 µM] (inactive)
12  CC1CCCN(C(=O)CNC(=O)c2sc3ccccc3c2Cl)C1 (stereo not drawn)  0.306% [at 0.0737 µM] (inactive)
13  COc1cccc(NC(=O)C(=O)NCCC2CCCCN2S(=O)(=O)c2cccs2)c1 (stereo not drawn)  -10.7% [at 0.0737 µM] (inactive)
14          COC(=O)c1ccc(NC(=S)NCc2ccco2)cc1    -4.68% [at 9.22 µM] (inactive)
15  O=C(CN(C(=O)c1ccc(Cl)cc1)N1C(=O)C2C3C=CC(C3)C2C1=O)c1cccs1 (stereo not drawn)     5.92% [at 9.22 µM] (inactive)
16  COc1cccc(NC(=O)CN(C)C(=O)C(C)Sc2ccccc2)c1 (stereo not drawn)   4.76% [at 0.0737 µM] (inactive)
17                    O=C(O)CSc1cccc2cccnc12     8.73% [at 9.22 µM] (inactive)
